Origin of measurements: ChEMBL document CHEMBL4513216

Test system: Plasmodium berghei
Experiment: Screen against P. berghei liver stage (PbLuc), transformed with Luciferase, at 10uM
Format: functional, HepG2
Details: tested at 10 uM
About 8,600 (12%) of roughly 69,000 compounds showed an effect of 50% or more. Only a selection was taken, and strong results are over-represented in it overall.
Property: INHIBITION; scope: individual compounds
Give the number; % is assumed, so skip it.

The cases that follow already have their INHIBITION on record.
Cc1ccc(CN2CC[C@H]3OCC[C@@H](C(=O)NC4CC4)[C@@H]3C2)o1 | 23.9
O=C1CC(C(=O)NCc2ccccc2Oc2ccccc2F)CCN1 (centres undefined) | 8.38
Cc1csc(CNC(=O)NC(C)c2ccc3c(c2)OCCO3)n1 (centres undefined) | 44.9
CN(C)CCN1C(=O)CO[C@@H]2CN(c3ncc(F)cn3)C[C@H]21 | 17.2
O=C(Cc1noc2ccccc12)N1CCC(Nc2cccnn2)CC1 | 43.3

Give reported INHIBITION value for NCC1CCC(C(NC(=O)CC2CCCC2)c2ccccn2)CC1 (centres undefined)
1.11

Answer with the recorded INHIBITION of `CCc1nc(CCNC(=O)C2CC2)sc1C` only.
2.69

State its INHIBITION for this compound: `CC(=O)N1CCC(NC(=O)NCc2ncc(-c3ccccc3)o2)CC1`
47.1

Read the entry `CC(C)c1ncncc1C(=O)N1CCCN(Cc2ccccc2)CC1` and write its reported INHIBITION.
14.1
